Reference source for all entries: PubChem BioAssay (NCI)

system: SN12C renal; test: NCI tumour cell line growth inhibition, 48 h
OBSERVED PROPERTY: TGI

[ask] Bench note: what TGI did CO/N=C(/C(=O)OC)c1ccccc1COc1cccc(C(F)(F)F)c1 show?
[reply] > 100 µM

---

Recorded measurements of TGI, one per entry
test system: CCRF-CEM leukemia; assay: NCI tumour cell line growth inhibition, 48 h

Would you please look over these solved cases?
CN(C)CCNC(=O)c1cc(-c2nccn2C)nc2ccccc12: > 100 µM
N#CC(NNC(=O)c1ccccc1O)c1ccccc1 (configuration not stated): > 100 µM
Clc1ccc(-c2nc3ccc(C45CC6CC(CC(C6)C4)C5)cc3[nH]2)cc1: > 100 µM
CCCCCCCCCC1CC(=O)NCC(=O)NC(C(C)C)C(=O)NC(CC(C)C)C(=O)NC(C)C(=O)NC(C(C)C)C(=O)O1 (configuration not stated): > 56.4 µM
[C-]#[N+]C(C)(C)C[C@H]1CC(C)C2CCC(C)C3([N+]#[C-])CCC(=C)C1[C@H]23 (some centres not stated): > 50 µM
N#CC(C#N)=C1SCC(=O)CS1: > 100 µM

In the following, a different molecule is considered.
[ask] Field: TGI (CCRF-CEM leukemia). Entry: Cc1ccc(/C=C2\CCCC\C2=N\O)cc1
[reply] > 100 µM

---

Reported TGI is given for each of the following molecules.
test system: SF-295 CNS; assay: NCI tumour cell line growth inhibition, 48 h

Worked cases, TGI given:
CC(C)(c1ccc(OC#N)cc1)c1ccc(OC#N)cc1: > 100 µM
C=CC(=O)Nc1cccc(C)c1Nc1ncc2cc(-c3c(Cl)c(OC)cc(OC)c3Cl)ccc2n1: > 100 µM

# context switch: different molecule, same TGI
[ask] Find the recorded TGI belonging to Cc1csc2nc3[nH]ncc3c(=O)n12 and report it.
[reply] > 100 µM

---

tested on: SR leukemia; assay: NCI tumour cell line growth inhibition, 48 h
Reported values of TGI for individual entries

Cc1cc(C)c(NS(=O)c2cccc(Cl)c2)c(C)c1 (stereo unspecified): > 100 µM
O=C(NCC(C(=O)OCc1ccccc1)C(=O)OCc1ccccc1)OCc1ccccc1: > 100 µM

[ask] For the compound shown here, [O-]c1c[n+](CC[n+]2cc([O-])on2)no1 , give the reported TGI.
[reply] > 100 µM

[ask] Please do the same for O=C(N/N=C\c1ccc(N(CCCl)CCCl)cc1Cl)c1cccnc1 as well.
[reply] 69.6 µM

[ask] Then this compound: Cc1ccc(CCCCCOc2ccc(C3=NCCO3)cc2)s1
[reply] > 100 µM

[ask] Now this one: O=[N+]([O-])/C=C/COCc1cc2c(cc1Br)OCO2
[reply] 54.1 µM

[ask] Record: COC(=O)C(CC(=O)Nc1ccc(Cl)c(Cl)c1)C(=O)C(=O)NC1C2CC3CC(C2)CC1C3 (stereo unspecified)
[reply] > 100 µM

[ask] Continue with CC(C)(c1ccc(OC#N)cc1)c1ccc(OC#N)cc1
[reply] 50.5 µM

---

tested on: COLO 205 colon; test: NCI tumour cell line growth inhibition, 48 h
Listed next: entries and their corresponding TGI.
// note: answer is a bare numeric in µM

COc1ccc2c(c1)CC1c3c(cc4c(c3-2)OCO4)CCN1C (stereo not given): 30.9

Now consider a different compound.
[ask] Request the reported TGI associated with CN1CCn2c(c(Sc3ccc(C(=O)NO)cc3)c3ccccc32)C1=O
[reply] 3.87
